Conditions: in acetonitrile, 308.15 K
Quantity name: solubility (mole fraction)
Answer with the value's number alone.

# solubility (mole fraction) lookup, item `CCOC(=O)CCC(=O)O[C@H]1[C@H](O[C@@H]2[C@@H](C)[C@H](O[C@H]3C[C@@](C)(OC)[C@@H](O)[C@H](C)O3)[C@@H](C)C(=O)O[C@H](CC)[C@@](C)(O)[C@H](O)[C@@H](C)C(=O)[C@H](C)C[C@@]2(C)O)O[C@H](C)C[C@@H]1N(C)C`
0.00504

---

Details: in THF, 303.15 K
Quantity name: solubility (mole fraction)
Answer with the value's number alone.

# solubility (mole fraction) lookup, item `CCOC(=O)CCC(=O)O[C@H]1[C@H](O[C@@H]2[C@@H](C)[C@H](O[C@H]3C[C@@](C)(OC)[C@@H](O)[C@H](C)O3)[C@@H](C)C(=O)O[C@H](CC)[C@@](C)(O)[C@H](O)[C@@H](C)C(=O)[C@H](C)C[C@@]2(C)O)O[C@H](C)C[C@@H]1N(C)C`
0.058
